# Ki per entry
# STUDY_TARGET: human NEP (Homo sapiens, UniProt P08473)
# Construct: purchased R&D Systems, Minneapolis, MN 1182-ZN
# Sequence (P08473 52-750 limits assumed): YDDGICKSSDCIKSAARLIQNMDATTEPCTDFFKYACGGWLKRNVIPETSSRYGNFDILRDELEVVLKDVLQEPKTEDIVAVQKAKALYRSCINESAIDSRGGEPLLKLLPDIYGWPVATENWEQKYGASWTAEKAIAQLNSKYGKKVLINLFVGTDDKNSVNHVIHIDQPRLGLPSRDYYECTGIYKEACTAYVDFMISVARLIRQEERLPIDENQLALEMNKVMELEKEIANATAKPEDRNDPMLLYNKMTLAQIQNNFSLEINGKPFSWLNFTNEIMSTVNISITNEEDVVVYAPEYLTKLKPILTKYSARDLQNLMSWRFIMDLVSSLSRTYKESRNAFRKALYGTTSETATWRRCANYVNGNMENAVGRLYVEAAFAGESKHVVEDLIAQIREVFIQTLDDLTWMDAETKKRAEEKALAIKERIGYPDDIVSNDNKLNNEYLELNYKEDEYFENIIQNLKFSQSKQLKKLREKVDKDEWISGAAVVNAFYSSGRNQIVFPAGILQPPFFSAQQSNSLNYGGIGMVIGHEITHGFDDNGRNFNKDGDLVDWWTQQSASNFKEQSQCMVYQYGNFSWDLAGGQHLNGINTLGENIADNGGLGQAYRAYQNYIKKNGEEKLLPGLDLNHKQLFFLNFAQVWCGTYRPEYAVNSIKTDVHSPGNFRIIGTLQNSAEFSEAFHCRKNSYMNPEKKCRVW
# PROTOCOL: In vitro enzyme inhibition assay at human NEP (fluorogenic peptide substrate)
# Assay type: biochemical
# SETUP_CONDITIONS: recombinant human NEP; 10 μM fluorogenic substrate Mca-D-Arg-Arg-Leu-Dap-(Dnp)-OH; 37° C.; 30 minute preincubation; read-out: pKi value at human NEP (converted)

Consider the worked cases shown below.
{"columns": ["SMI", "Ki"],
 "data": [
  ["CCOC[C@](C)(C[C@@H](Cc1ccc(-c2cc(Cl)ccc2F)cc1)NC(=O)c1cc(C(C)=O)[nH]n1)C(=O)O", "≤ 1 nM"],
  ["C[C@@](CO)(C[C@@H](Cc1ccc(-c2cc(Cl)ccc2F)cc1)NC(=O)c1c[nH]nn1)C(=O)O", "1 to 3.16 nM"],
  ["COC[C@](C)(C[C@@H](Cc1ccc(-c2cc(Cl)ccc2F)cc1)NC(=O)c1cc(C(C)=O)n[nH]1)C(=O)O", "1 to 3.16 nM"]
]}

Look at this compound and give its reported Ki. `CCOC[C@](C)(C[C@@H](Cc1ccc(-c2cc(Cl)ccc2F)cc1)NC(=O)c1cc(CC)no1)C(=O)O`
≤ 1 nM

Entry to check: `Cc1ccc(Cl)cc1-c1ccc(C[C@H](C[C@@](C)(CO)C(=O)O)NC(=O)c2c[nH]nn2)cc1`
≤ 1 nM

One more compound: `CCOC[C@](C)(C[C@@H](Cc1ccc(-c2cccc(Cl)c2)cc1)NC(=O)c1cc(O)no1)C(=O)O`
≤ 1 nM

// repeat for `CC(=O)OC[C@](C)(C[C@@H](Cc1ccc(-c2ccccc2)cc1)NC(=O)c1cnn[nH]1)C(=O)O` and report
≤ 1 nM
